tested on: PIII; assay: Heavy metal effect on proteolytic activity of PIII; type: biochemical, surf clam, Spisula solidissima; settings: metal ions 0.5 mM, pH 2.8
READOUT_LABEL: PIII % Retention (%)
Number in %, nothing else.

Quick one: PIII % Retention for "[Co+2]" ?
90.7

// repeat for "[Sn+2]" and report
83.7

Also, "[Cd+2]" please.
96.4

"[Zn+2]" ?
103.1

Next compound: "[Ca+2]"
99.2

Entry "[Ag+]" please
95.0

Would you mind doing "[Cu+2]" as well?
18.0

Cool, now "[Mg+2]"
98.2

Now consider "[Pb+2]" and answer again.
96.9

Likewise for "[Hg+2]" ?
0.0

Likewise for "[Ni+2]" ?
92.5
